- Tested on: Paddy
- EXPERIMENT: Percentage of protein in grain, field trial on Paddy
- Format: in vivo
- DETAILS: area 10-meter square, 1 gm/liter foliar application
- Description: Example 11: Percentage of Protein in Grain Field trail results on Paddy—Area 10-meter square 1 gm/liter Foliar Application
For each of the compounds below, state its % of Protein.
Number in %, nothing else.

Entry O=CNC(=O)NC=O ; % of Protein = 0.0117

Entry NC(N)=O ; % of Protein = 0.0063

Entry CNC(=O)NC ; % of Protein = 0.0081

Entry O=C(Nc1ccccc1)Nc1ccccc1 ; % of Protein = 0.0089
